experimental.target: Cholecystokinin receptor (Rattus norvegicus, UniProt P30551+P30553)
Type: protein assay
Description: Half-maximal inhibition of [125I]-CCK-33 binding to rat pancreas cholecystokinin receptor
Threshold-based label: IC50 under 4 µM gives TRUE, IC50 not under 4 µM gives FALSE.

Hello, I'm reviewing records and need to know if IC50 of O=C(O)c1ccccc1C1=N[C@H](Cc2c[nH]c3ccccc23)C(=O)Nc2ccccc21 is below 4 µM. Could you check?
FALSE

Now the compound CN1C(=O)[C@@H](Cc2cn(C(=O)c3ccc(Cl)cc3)c3ccccc23)N=C(c2ccccc2F)c2ccccc21
FALSE

Input CN1C(=O)[C@@H](Cc2cn(C)c3ccccc23)N(C(=O)c2ccc(Cl)cc2)C(c2ccccc2F)c2ccccc21 (some centres not stated)
FALSE

Moving on to the next compound: CN1C(=O)[C@@H](Cc2cn(C)c3ccccc23)N=C(c2ccccc2F)c2ccccc21
TRUE

Also need O=C1[C@@H](Cc2c[nH]c3ccccc23)N=C(c2ccccc2F)c2ccccc2N1CC(F)(F)F , thanks.
TRUE

Subsequent entry: CN1C(=O)[C@@H](Cc2c[nH]c3ccccc23)N=C(c2ccccc2)c2cc(Cl)ccc21
TRUE

Moving on to CN1C(=O)[C@@H](Cc2cn(C)c3ccccc23)N=C(c2ccccc2)c2ccccc21
TRUE

// repeat for O=C1Nc2ccccc2C1C[C@H]1N=C(c2ccccc2)c2cc(Cl)ccc2NC1=O (some centres not stated) and report
FALSE

# iterate: O=C1Nc2ccccc2C(c2ccccc2F)=NC1C[C@H]1CNc2ccccc21 (some centres not stated)
FALSE

Another compound: O=C1Nc2ccc(Cl)cc2C(c2ccccc2)=N[C@@H]1Cc1ccc(OCc2ccccc2)cc1
FALSE

And the next one, O=C1Nc2ccccc2C(c2ccccc2F)=NC1Cc1c[nH]c2cc(F)ccc12 (configuration not stated) ?
TRUE

Item: O=C(O)CCN1C(=O)[C@@H](Cc2c[nH]c3ccccc23)N=C(c2ccccc2F)c2ccccc21
TRUE

Now consider CN1C(=O)/C(=C/c2ccsc2)N=C(c2ccccc2)c2ccccc21 .
FALSE

What do we get for CN1CC(CC2N=C(c3ccccc3)c3ccccc3N(C)C2=O)c2ccccc21 (configuration not stated) ?
FALSE

Now consider O=C(O)CN1C(=O)[C@@H](Cc2c[nH]c3ccccc23)N=C(c2ccccc2F)c2ccccc21 .
TRUE

* * *

Catalogue of molecules with associated Ratio
Organism: Rattus norvegicus
protocol.notes: Selectivity of binding to pancreatic CCK and brain benzodiazepine receptors, ratio of IC50
The answer should be a number; do not append a unit.

CC(C)C[C@@H]1N[C@H]2N(C1=O)c1ccccc1[C@@]2(O)C[C@@H]1NC(=O)c2ccccc2-n2c1nc1ccccc1c2=O    0.028

Suppose we examine the molecule Cc1nnc2n1-c1ccccc1C(c1ccccc1F)=N[C@@H]2Cc1c[nH]c2ccccc12 ; what Ratio value has been reported?
1.5

* * *

Quick reference for pIC50 among some compounds
experimental.target: GABA-A receptor; anion channel
protocol.notes: Displacement of [3H]diazepam from rat brain GABA-A benzodiazepine receptor
Reminder that pIC50 is minus the log10 of a molar concentration.

Here's what some known entries look like.
CC(C)C[C@@H]1N[C@H]2N(C1=O)c1ccccc1[C@@]2(O)C[C@@H]1NC(=O)c2ccccc2-n2c1nc1ccccc1c2=O    4.30
CN1C(=O)CN=C(c2ccccc2F)c2cc([N+](=O)[O-])ccc21    8.77
O=C1CN=C(c2ccccc2Cl)c2cc([N+](=O)[O-])ccc2N1    8.77

Then there is this compound:
What value of pIC50 has been reported for the following compound? O=C1Nc2ccc(Cl)cc2C(c2ccccc2)=N[C@H]1Cc1c[nH]c2ccccc12
5.25

* * *

experimental.target: Cholecystokinin receptor (Rattus norvegicus, UniProt P30551+P30553)
Sequence (P30551 whole entry): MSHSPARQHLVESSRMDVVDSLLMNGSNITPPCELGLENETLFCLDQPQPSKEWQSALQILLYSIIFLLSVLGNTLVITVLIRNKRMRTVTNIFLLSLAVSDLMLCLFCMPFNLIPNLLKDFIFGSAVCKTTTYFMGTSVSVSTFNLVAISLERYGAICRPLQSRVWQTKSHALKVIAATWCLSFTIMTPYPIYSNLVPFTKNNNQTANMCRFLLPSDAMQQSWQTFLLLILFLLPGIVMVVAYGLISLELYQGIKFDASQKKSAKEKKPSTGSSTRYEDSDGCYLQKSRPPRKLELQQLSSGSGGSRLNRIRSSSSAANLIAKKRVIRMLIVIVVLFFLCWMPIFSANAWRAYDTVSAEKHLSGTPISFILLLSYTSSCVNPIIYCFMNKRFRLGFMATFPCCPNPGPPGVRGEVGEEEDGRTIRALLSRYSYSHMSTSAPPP
Sequence (P30553 whole entry): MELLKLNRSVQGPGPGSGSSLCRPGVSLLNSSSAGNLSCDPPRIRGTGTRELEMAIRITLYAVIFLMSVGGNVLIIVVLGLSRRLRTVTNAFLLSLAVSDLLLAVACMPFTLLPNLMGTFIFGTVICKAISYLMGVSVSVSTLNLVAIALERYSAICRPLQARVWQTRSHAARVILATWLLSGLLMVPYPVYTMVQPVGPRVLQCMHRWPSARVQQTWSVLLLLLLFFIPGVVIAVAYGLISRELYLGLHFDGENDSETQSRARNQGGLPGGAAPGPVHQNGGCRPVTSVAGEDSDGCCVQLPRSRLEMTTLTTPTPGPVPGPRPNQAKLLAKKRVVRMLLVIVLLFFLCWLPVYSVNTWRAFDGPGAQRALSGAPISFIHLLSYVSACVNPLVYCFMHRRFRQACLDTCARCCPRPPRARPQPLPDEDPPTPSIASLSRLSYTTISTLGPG
Type: protein assay
observable: log10(IC50) (log10 of the value in µM)
Plainly stated, the numbers are log10 of IC50 given in µM.

Worked cases, log10(IC50) given:
CCOC(=O)CN1C(=O)[C@@H](Cc2c[nH]c3ccccc23)N=C(c2ccccc2F)c2ccccc21    0.92
O=C1Nc2ccccc2C(c2ccccc2)=N[C@@H]1Cc1c[nH]c2ccccc12    0.08
CC(C)CC(N)C(=O)N1CC(CC2N=C(c3ccccc3)c3ccccc3NC2=O)c2ccccc21.Cl (stereo not given)    0.82

Look up log10(IC50) for this compound: CCN1C(=O)[C@@H](Cc2c[nH]c3ccccc23)N=C(c2ccccc2F)c2ccccc21
-0.52

Can you handle O=C1[C@@H](Cc2c[nH]c3ccccc23)N=C(c2ccccc2F)c2ccccc2N1CC1CC1 next?
0.34

Follow-up item: CN1C(=O)[C@@H](Cc2c[nH]c3ccccc23)N=C(c2ccccc2F)c2ccccc21
-0.57

O=C1Nc2ccc(Cl)cc2C(c2ccccc2Cl)=N[C@@H]1Cc1c[nH]c2ccccc12 , same question.
0.70

Try this compound next: Fc1ccccc1C1=N[C@H](Cc2c[nH]c3ccccc23)CNc2ccccc21
0.60

* * *

experimental.target: GABA-A receptor; anion channel
protocol.notes: Displacement of [3H]flunitrazepam from GABA-A benzodiazepine receptor of guinea pig brain
Parameters: species or system Cavia porcellus
observable: IC50 (nM)
Value expressed in nM; do not type the unit.

Write down the reported IC50 of Cc1nnc2n1-c1ccccc1C(c1ccccc1F)=N[C@@H]2Cc1c[nH]c2ccccc12 , test system: GABA-A receptor; anion channel.
800

* * *

experimental.target: Cholecystokinin receptor (Rattus norvegicus, UniProt P30551+P30553)
Assay type: protein assay
Threshold 20 µM. IC50 below it: criterion met. IC50 at it or above: criterion not met.

Sample answers from the record:
NC(=O)CN1C(=O)[C@@H](Cc2c[nH]c3ccccc23)N=C(c2ccccc2F)c2ccccc21    criterion met
O=C1[C@@H](Cc2c[nH]c3ccccc23)N=C(c2ccccc2)c2cc(Cl)ccc2N1Cc1ccccc1    criterion not met
SC1=Nc2ccc(Cl)cc2C(c2ccccc2)=N[C@@H]1Cc1c[nH]c2ccccc12    criterion met
CN1C[C@@H](CC2N=C(c3ccccc3)c3ccccc3N(C)C2=O)c2ccccc21 (some centres not stated)    criterion met
Cc1nnc2n1-c1ccccc1C(c1ccccc1F)=N[C@@H]2Cc1c[nH]c2ccccc12    criterion met
O=C1Nc2ccc(Cl)cc2C(c2ccccc2)=N[C@@H]1Cc1c[nH]c2ccccc12    criterion met

Lab note: IC50 threshold 20 µM. Does this molecule come in strictly under it? O=C1Nc2ccccc2C(c2ccccc2)=NC1Cc1c[nH]c2ccc(Br)cc12 (configuration not stated)
criterion met

Now the molecule O=C1Nc2ccc(Cl)cc2C(c2ccccc2)=N[C@H]1Cc1c[nH]c2ccccc12
criterion not met

Next molecule up: CN1C(=O)[C@@H](Cc2c[nH]c3ccccc23)N=C(c2ccccc2)c2ccccc21
criterion met

And O=C1Nc2ccc(Cl)cc2C(c2ccccc2)=N[C@@H]1COCc1ccccc1 ?
criterion not met

Also O=C1CN=C(c2ccccc2Cl)c2cc([N+](=O)[O-])ccc2N1 ?
criterion not met

Then CN1C(=O)/C(=C\c2ccsc2)N=C(c2ccccc2)c2ccccc21 ?
criterion not met

Then O=C1Nc2ccc(Cl)cc2C(c2ccccc2)N[C@@H]1Cc1c[nH]c2ccccc12 (some centres not stated) ?
criterion met

Proceed to O=C1Nc2ccc(Cl)cc2C(c2ccccc2)=NC1Cc1cccc2ccccc12 (configuration not stated)
criterion not met

Next up: O=C1Nc2ccccc2C(c2ccccc2)=NC1C[C@@H]1CNc2ccccc21 (some centres not stated)
criterion met

Entry to check: CC(C)C[C@H]1N=C(c2ccccc2)c2cc(Cl)ccc2NC1=O
criterion not met

Okay, and O=C1[C@H](Cc2c[nH]c3ccccc23)N=C(c2ccccc2)c2cc(Cl)ccc2N1Cc1ccccc1 ?
criterion not met
